All values here come from paper PMC4156411.

Molecular target: GII.2 (SMV) VLP, major capsid protein (Human norovirus GII.2 (Snow Mountain virus))
Sequence: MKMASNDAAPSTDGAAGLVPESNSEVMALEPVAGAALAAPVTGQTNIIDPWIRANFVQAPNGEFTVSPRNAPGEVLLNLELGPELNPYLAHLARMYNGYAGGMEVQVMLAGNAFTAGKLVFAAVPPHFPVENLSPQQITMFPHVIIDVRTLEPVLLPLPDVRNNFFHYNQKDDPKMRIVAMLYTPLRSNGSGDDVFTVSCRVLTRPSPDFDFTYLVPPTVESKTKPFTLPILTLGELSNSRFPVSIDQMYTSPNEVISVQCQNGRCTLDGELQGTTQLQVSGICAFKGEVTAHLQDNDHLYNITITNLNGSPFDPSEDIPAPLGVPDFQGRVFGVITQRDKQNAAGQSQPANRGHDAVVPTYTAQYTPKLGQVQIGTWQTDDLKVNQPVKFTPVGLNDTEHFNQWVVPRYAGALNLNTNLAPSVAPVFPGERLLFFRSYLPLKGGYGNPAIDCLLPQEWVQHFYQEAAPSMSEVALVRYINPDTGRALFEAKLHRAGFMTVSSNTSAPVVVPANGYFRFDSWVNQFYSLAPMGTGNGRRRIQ
Assay: ELASA
Details: ELASA: VLPs 3 ug/ml coated, blocked with 5% skim milk in PBST plus unrelated DNA, 1 uM biotinylated aptamer (10 nM-2 uM for Kd), 1 h at RT, PBST washes
pKd: −log10 of the molar value.

| Biopolymer sequence | pKd |
| --- | --- |
| AGTATACGTATTACCTGCAGCCATCTGTGTGAAGACTATATGGCGCTCACATATTTCTTTCCGATATCTCGGAGATCTTGC [SMV-25] | 6.63 |
| AGTATACGTATTACCTGCAGCCCATGTTTTGTAGGTGTAATAGGTCATGTTAGGGTTTCTGCGATATCTCGGAGATCTTGC [SMV-21] | 7.00 |
| AGTATACGTATTACCTGCAGCCACCAGTGTGTTGAGGTTTGAGCACACTGATAGAGTGTCACGATATCTCGGAGATCTTGC [SMV-19] | 6.72 |
| AGTATACGTATTACCTGCAGCTGACCGAGTGTCTGGTCATTTTCGATGTCTGTTGTTAGGCCGATATCTCGGAGATCTTGC [SMV-26] | 6.55 |
